Population Hoechst High Intensity Objects (%) overview
- System: Fibroblast
- PROTOCOL_NOTES: Multiplex assay against human fibroblast
- Format: toxicity, cell-based
- CONDITION_PARAMETERS: 48 h, 10 µM, compound concentration 10 uM, replicate 2
ENDPOINT: Population Hoechst High Intensity Objects (%)

> print(dat)
                                    compound  value.measured
 1  COc1ccc(-c2ccc3ncc4c(c3c2)n(-c2ccc(N3CCNCC3)c(C(F)(F)F)c2)c(=O)n4C)cn1.O=C(O)/C=C\C(=O)O             44%
 2  CCCSc1nc(N[C@@H]2C[C@H]2c2ccc(F)c(F)c2)c2nnn([C@@H]3C[C@H](OCCO)[C@@H](O)[C@H]3O)c2n1              5%
 3  C[C@]12CC[C@@H]3c4ccc(O)cc4CC[C@H]3[C@@H]1CC[C@@H]2O              2%
 4  CC(C)Oc1ccccc1C(=O)Nc1ccccc1C(=O)Nc1cccc(S(=O)(=O)C(F)(F)F)c1              9%
 5  COc1cc(Nc2nccc(-c3cnn4nc(OC)ccc34)n2)cc(C(F)(F)F)c1             26%
 6  CC(C)NC(=O)N1CC[C@H](NC2=Nc3cc(F)ccc3N(CC(F)F)c3ccc(Cl)cc32)C1              7%
 7  O=C(c1cc2c(cc1F)OC(c1ccc(F)cc1)(c1ccc(Cl)cc1Cl)O2)N1CCOCC1 (configuration not stated)             12%
 8  COc1ccccc1CN[C@H]1C2CCN(CC2)[C@H]1C(c1ccccc1)c1ccccc1             11%
 9  CCc1ccc(OCc2ccccc2C(=O)Nc2ccc3nc(C)cc(N)c3c2)cc1.Cl             39%
10  Cc1c[nH]c2nccc(Oc3c(F)cc(Nc4cc(Cl)nc(N)n4)cc3F)c12             17%
11  Cc1ccc2c(c1)c1c(n2CCc2ccc(C)nc2)CCN(C)C1 [LATREPIRDINE]             25%
12  Cc1ccc(C)c(Oc2ccncc2C(=O)N2CCN(C3CC3)c3ccccc32)c1              7%
13  CCOC(=O)Nc1cc(-c2ccc(C)c(NS(C)(=O)=O)c2)nn2c(C)nnc12             10%
14  Cl.O=C(O)c1cc(-c2ccc(C3CCNCC3)cc2)c2ccc(-c3ccc(C(F)(F)F)cc3)cc2c1              9%
15  COC(=O)C1=C(C)NC(C)=C(C(=O)OCCCN2CCC(c3ccccc3)(c3ccccc3)CC2)[C@H]1c1cccc([N+](=O)[O-])c1             31%
16  CC(C)OC(=O)N1CCC(Oc2ncnc3c2cnn3-c2ccc(S(C)(=O)=O)cc2F)CC1              7%
17       CC(C)(C)NC[C@H](O)COc1nsnc1N1CCOCC1              9%

Hello, the source for this data is ChEMBL document CHEMBL4689842, in case you need it.
